# Tested on: fMLP-stimulated H2O2 production in human PMN
# MEASUREMENT_NOTES: Adenosine inhibition of fMLP-stimulated H2O2 production in human PMN
# Assay type: cell-based
# MEASUREMENT_PARAMETERS: Homo sapiens, PMN pre-incubated with TNF-α 6 hrs
EXPERIMENTAL_ENDPOINT: IC50 (nM)

GIVEN_SMILES: Nc1ncnc2c1ncn2[C@@H]1O[C@H](CO)[C@@H](O)[C@H]1O
EXPERIMENTAL_ENDPOINT: IC50
OBS_VALUE: 106
